Please provide measured Kd for the entries that follow.
Target: T1, PUF4 RNA-binding domain (Saccharomyces cerevisiae, UniProt P25339 537-888)
T1 sequence: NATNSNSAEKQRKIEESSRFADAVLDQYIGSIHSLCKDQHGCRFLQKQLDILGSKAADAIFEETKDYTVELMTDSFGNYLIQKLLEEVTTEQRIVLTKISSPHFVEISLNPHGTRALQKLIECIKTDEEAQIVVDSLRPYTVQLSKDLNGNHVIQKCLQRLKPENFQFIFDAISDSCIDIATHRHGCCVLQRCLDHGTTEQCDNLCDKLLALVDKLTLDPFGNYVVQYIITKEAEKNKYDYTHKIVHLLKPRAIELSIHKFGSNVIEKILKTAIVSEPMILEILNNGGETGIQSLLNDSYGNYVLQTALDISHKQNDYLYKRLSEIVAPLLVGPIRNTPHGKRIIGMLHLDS
Assay: Mg; RNA-MaP; 20 mM Na-HEPES pH 7.4, 30 mM KOAc, 0.75 mM MgCl2, 0.1% Tween-20, 5% glycerol, 0.1 mg/mL BSA, 2 mM DTT; 25 C; 0.0125-409.6 nM protein
Conditions: tags: N-His6-TEV cleaved; C-SNAP kept, Cy3B-labelled; label: tethered on chip by stalled RNA polymerase

- Id_ii_S2_P5E.4_K5.3_C5.2_[C-2T]_H5.3_A5.1_F5.1_T5.2_[T11G]_[A12C] (ssRNA) RNA: UUUGAUUAAUAUGAUAUCGUUCUUUCUUUACACUUAUUAGCUUCUUUCUCGAUAUCAUAUUAAUCUUU: > 2300 nM

Return reported Kd values for all items listed beneath this line.
1. Id_ii_S2_P4E.2_K4.1_C4.2_[C-2A]_[T-1C]_H4.1_A4.1_F4.1_T4.2_[G10T] (ssRNA) RNA: UUUGAUUAAUAUGAUAUCGUUCUUUCUACUGUAUAUUAUUUUCUUUCUCGAUAUCAUAUUAAUCUUU
2. Ic_S2_P3E.1_K3.1_C3.1_H3.1_A3.1_[T5G]_[A6C]_F3.1_[A8T]_T3.1 (ssRNA) RNA: UUUGAUUAAUAUGAUAUCGUUCUUUCUUGUAGCUUUUCUUUCUCGAUAUCAUAUUAAUCUUU

0.296 nM
18.6 nM

For the 7 binders below, give their Kd values.
1. Ib_S4_P4E.1_K4.1_C4.1_H4.1_A4.1_[T7A]_F4.1_[T8A]_T4.1 (ssRNA) RNA: UUUGACAACUGAUCGUUCUUUCUUGUAUAAAAUUCUUUCUCGAUCAGUUGUCUUU
2. Ic_S2_P4E.1_K4.1_C4.1_H4.1_A4.1_[T5A]_[T7C]_F4.1_[T8A]_[A9C]_T4.1 (ssRNA) RNA: UUUGAUUAAUAUGAUAUCGUUCUUUCUUGUAAACACUUCUUUCUCGAUAUCAUAUUAAUCUUU
3. UCUCUUUAUAUAUAUUAUCUCUCUU (ssRNA) [Id_ii_S1_P4E.3_K4.2_C4.2_[C-2T]_[T-1A]_H4.2_A4.1_F4.1_T4.2_[G10T]_[T11C]]
4. UCUCUUUGUAACCAUUCUCUU (ssRNA) [Ic_S1_P4E.1_K4.1_C4.1_H4.1_A4.1_[T5A]_[A6C]_[T7C]_F4.1_[T8A]_[A9T]_T4.1]
5. Ib_S4_P4E.1_K4.1_C4.1_H4.1_[T1G]_A4.1_[A6T]_F4.1_T4.1 (ssRNA) RNA: UUUGACAACUGAUCGUUCUUUCUGGUAUUUUAUUCUUUCUCGAUCAGUUGUCUUU
6. ACAAACUGACACUUAUUAUAACAAAC (ssRNA) [Id_ii_S3_P5E.4_K5.3_C5.2_[C-2T]_[T-1G]_H5.3_A5.1_F5.1_T5.2]
7. Ic_S2_P4E.1_K4.1_C4.1_H4.1_A4.1_[T5G]_[A6T]_[T7C]_F4.1_[A9T]_T4.1 (ssRNA) RNA: UUUGAUUAAUAUGAUAUCGUUCUUUCUUGUAGUCUUUUCUUUCUCGAUAUCAUAUUAAUCUUU

1: 29.8 nM; 2: 528 nM; 3: 24.5 nM; 4: 548 nM; 5: 971 nM; 6: > 2300 nM; 7: 41.9 nM

// each listed binder needs a value for Kd
1. Ic_S4_P4E.1_K4.1_C4.1_H4.1_A4.1_[T5A]_[A6T]_F4.1_T4.1 (ssRNA) RNA: UUUGACAACUGAUCGUUCUUUCUUGUAAUUUAUUCUUUCUCGAUCAGUUGUCUUU
2. Ic_S4_P5E.1_K5.1_C5.1_H5.1_A5.1_[T5C]_[T6G]_[A7T]_F5.1_[T8G]_[T9G]_[A10T]_T5.1 (ssRNA) RNA: UUUGACAACUGAUCGUUCUUUCUUGUACGUGGUUUCUUUCUCGAUCAGUUGUCUUU

2.38 nM
195 nM
